Test: in vitro
Details: human, hela cells, % viability
Let's look at some compounds and their measured viability at 28.5 h, 10 µM.
outcome-measure: viability at 28.5 h, 10 µM (%)

>>> print(df.to_string())
                                    compound             outcome_measure  obs_value
 0          CC(=O)Nc1cccc2c1NSN2 [CBK027082]  viability at 28.5 h, 10 µM       92.1
 1  O=C(NC(Cc1c[nH]c2ccccc12)C(=O)NC1CCCCC1)OCc1ccccc1 (centres unmarked) [CBK085144]  viability at 28.5 h, 10 µM         89
 2  COc1cc(/C=C/CN2CCC(C(=O)NC(C)c3ccc(F)cc3)CC2)ccc1OC(C)=O (centres unmarked) [CBK148061]  viability at 28.5 h, 10 µM       90.1
 3  COCC(=O)Nc1ccc2c(c1)NC(=O)C(C)(C)CO2 [CBK287658]  viability at 28.5 h, 10 µM         89
 4  O=C(CCc1ccc(F)cc1)N1CCCC(c2cccc(Cc3ccccc3F)n2)C1 (centres unmarked) [CBK286512]  viability at 28.5 h, 10 µM       91.2
 5  Cc1ccc(S(=O)(=O)N(C)CC(=O)N(C)Cc2ccccc2)cc1 [CBK264201]  viability at 28.5 h, 10 µM       95.5
 6  Fc1ccc2[nH]c3c(c2c1)CCN1C(c2cccnc2)N2CCC31CC2 (centres unmarked) [CBK284436]  viability at 28.5 h, 10 µM       87.6
 7  COc1ccc(CN2C(=O)CC3(C2=O)C(=O)N(Cc2ccccc2)c2ccc(F)cc23)cc1OC (centres unmarked) [CBK075174]  viability at 28.5 h, 10 µM        108
 8  Cc1cc(N2CCOCC2)ccc1NC(=O)CCOc1cccc(Cl)c1 [CBK305724]  viability at 28.5 h, 10 µM        102
 9  O=C(/C=C/c1ccc([N+](=O)[O-])cc1)c1ccc(O)c(O)c1 [CBK265028]  viability at 28.5 h, 10 µM        105
10  COc1cc(C(=O)O)cc2c1NC(c1ccc(C(=O)O)cc1)C1CC=CC21 (centres unmarked) [CBK287018]  viability at 28.5 h, 10 µM       90.3
11  CC1CCCN(C(=O)c2cc(S(=O)(=O)N3CCOCC3)ccc2Cl)C1 (centres unmarked) [CBK305012]  viability at 28.5 h, 10 µM       99.5
12  O=C(Cn1ccc2ccc(F)cc21)Nc1cccc(-n2cnnc2)c1 [CBK282570]  viability at 28.5 h, 10 µM        111
13  O=[N+]([O-])c1cc(Nc2ncnc3ccccc23)cc(Oc2ccccc2)c1 [CBK293928]  viability at 28.5 h, 10 µM       90.3
14  Cn1nc(-c2ccc(S(=O)(=O)Nc3nnn[nH]3)s2)cc1C(F)(F)F [CBK062390]  viability at 28.5 h, 10 µM       94.4
15  FC(F)(F)c1nc2ccccc2nc1SCCOc1ccccc1 [CBK103726]  viability at 28.5 h, 10 µM        102
16  O=C(c1ccc(F)cc1)N1CCC(c2cc3cnccc3[nH]2)CC1 [CBK283445]  viability at 28.5 h, 10 µM       87.3
